Hey, just so you know, these numbers are from the nanobody polyreactivity screen of Harvey et al. (2022).

PROTOCOL: yeast display, Sf9 membrane polyspecificity reagent, FACS + sequencing; frameworks hold sequencing errors
EXPERIMENTAL_READOUT: polyreactivity (PSR sort gate)

QVQLVESGGGLVQAAGSLRLSCAASGRILDFYDMGWYRQAPGKERELVAAITSGTSTYYADSVKGRFTISRDNAKNTVYLQMNSMKPEDTAVYYCAAAHVPVGQYVYWYDYWGQGTQVTVSS : low polyreactivity
QVQLVESGGGLVQAGGILRLSCAASGSIFPYYAMGWYRQAPGKERELVATITSRGGSTYYADSVKGRFTISRDNAKNTVYLQMNSLKPEDTAVYYCNTLQPYLYDYWGQGTQVTVSS : high polyreactivity
QVQLVESGGGLVQAGGSLRLSCAASGRIFVGYAMGWYRQAPGKERELVAAISSDGGSTYYADSVKGRFTISRDNAKNTVYLQMNSLKPEDTAVYYCNAYYGRFPYYADDYWGQGTQVTVSS : low polyreactivity
QDQLVESGGGLVQAGGSLRLSCAASGRIIQYYDMGWYRQAPGKERELVAAITSNGGRTYYADSVKGRFTISRDNAKNTVFLLMNILKPEDTAVYYCAKTFDFSAYPPLTLKYGYWGQGTQVTVSS : high polyreactivity

Ask: Supply measured polyreactivity (PSR sort gate) of QVQLVESGGGLVQAGGSLRLSCAASGLTFSNYAMGWYRQAPGKERELVAAISASGGSTYYADSVKGRFTISRDNAKNTVYLQMNSLKPEDTAVYYCAAATTRPVYPANDDYWGQGTQVTVSS in your reply.
Result: low polyreactivity

Ask: Supply measured polyreactivity (PSR sort gate) of QVQLVESGGGLVQAGGSLRLSCAASGHIFDHYAMGWYRQAPGKERELVAAISTSGTSTYYADSVKGRFTISRDNAKNTVYLQMNSLKPEDTAVYYCNAGGGHVGDVRYPYRYWRYNYWGQGTQVTVSS in your reply.
Result: low polyreactivity

Ask: Supply measured polyreactivity (PSR sort gate) of QLQLVESGGGLDQAGGSLRLSCAASAFTFGYYSKGWNRQAPGKQTELVASISRSGGSTNYADSVKGRFTISRDNAKKTVYLQMNSLIPEDNAVYYCNNRVNTYRSVSRRYDYWGQGTQVTLSS in your reply.
Result: high polyreactivity

Ask: Supply measured polyreactivity (PSR sort gate) of QVQLVESGGGLVQAGGSLRLSCAASGSTFSGYAMRWYRQAPGKERELVATITRRGGNTYDADSVKGGFTISRDNAKNTVYLQMNSLKPEDTAVYYCAKEGRVQSPYHYWGQGTQVTVSS in your reply.
Result: low polyreactivity

Ask: Supply measured polyreactivity (PSR sort gate) of QVQLVESGGGLVQAGGSLRLSCAASGRTFFKNAMGWYRQAPGKERELVAAITSSGGTTYYADSVKGRFTISRDNAKNTVYLQMISLKPEDTAVYYCATRKYPIRYGYGYWGQGTQVTVSS in your reply.
Result: high polyreactivity

Ask: Supply measured polyreactivity (PSR sort gate) of QVQRLESAGGLVQAGGSLRLSCAASGFIFSYYAMGWYRQAPGKERELVAAIDGSGGSTYYADSVKGRFTISRDNAKNTVYLQKNSLKPEDTAVYYCNTLIYIQGLGYDYGGQGTQVTVSS in your reply.
Result: high polyreactivity

Ask: Supply measured polyreactivity (PSR sort gate) of QVQLVESGGRLVQAGGSLRLSCAASGRIFGYYAMGWYRQAPGKERELVAAISSGGNTYYADSVKGRFTISRDNAKNTVYLQMNSLKPEDTAVYYCNEVYVGWQYGYDYWGQGTQVTVSS in your reply.
Result: low polyreactivity

Ask: Supply measured polyreactivity (PSR sort gate) of QVQLVESGGGLVQAGGSLRLSCAASGSIFGHYAMGWYRQAPGKERELVAAISWSGTSTYYADSVKGRFTISRDNAKNTVYLQMNSLKPEDTAVYYCAAEASYNYGKYVVTYDYWGQGTQVTVSS in your reply.
Result: high polyreactivity

Ask: Supply measured polyreactivity (PSR sort gate) of QVQLVESGIGLVQAGGSLRLSCAASGRTLGGNAMGWYRQAPGKERELVAAINWSGGITYYADSVKGRFTISRDNAKNTVYLQMNSLKPEDTAVYYCARYKYNRQTRVEYGYWGQGTLVTVSS in your reply.
Result: high polyreactivity
